tested on: DHFR (human) versus PTR1 (Leishmania major); experiment: Selectivity index, ratio of IC50 for human DHFR to IC50 for Leishmania major PTR1; format: toxicity; conditions: human DHFR enzyme and Leishmania major PTR1 enzyme, read-out: Ratio IC50
Measured selectivity ratio values are reported for all entries that follow.
Give your answer as a number; write no unit.

>  <structureNotation>
CCN(CC)c1ncc2nc(NC(=O)c3ccc(Cl)c([N+](=O)[O-])c3)sc2n1

>  <selectivity ratio>
12.6

$$$$
>  <structureNotation>
CN1CCN(c2ncc3nc(NC(=O)c4ccc(Cl)c(Cl)c4)sc3n2)CC1

>  <selectivity ratio>
312

$$$$
>  <structureNotation>
O=C(Nc1nc2cnc(N3CCCC3)nc2s1)c1ccc(Cl)c([N+](=O)[O-])c1

>  <selectivity ratio>
25.1

$$$$

Kindly consider the entry below.
Ask: Consider the molecule CN(C)c1ncc2nc(NC(=O)c3ccc(Cl)c([N+](=O)[O-])c3)sc2n1 tested on DHFR (human) versus PTR1 (Leishmania major); state its selectivity ratio.
Result: 7.02

###

assay: Cytotoxicity against mouse L929 cells by alamar blue method; type: toxicity, cell-based; conditions: mouse, L929 cells
Property: IC50; scope: individual compounds
Return type: number; implicit unit µg/mL.

>  <structureNotation>
CN1CCN(c2ncc3nc(NC(=O)c4ccc(Cl)c(Cl)c4)sc3n2)CC1

>  <reportedEndpoint>
IC50

>  <outputUnit>
µg/mL

>  <observedValue>
27.7

$$$$
>  <structureNotation>
CCOC(=O)N1CCN(c2ncc3nc(NC(=O)c4ccc(Cl)c(Cl)c4)sc3n2)CC1

>  <reportedEndpoint>
IC50

>  <outputUnit>
µg/mL

>  <observedValue>
14.1

$$$$
>  <structureNotation>
CCN(CC)c1ncc2nc(NC(=O)c3ccc(Cl)c([N+](=O)[O-])c3)sc2n1

>  <reportedEndpoint>
IC50

>  <outputUnit>
µg/mL

>  <observedValue>
19.1

$$$$

Please look at the following compound next.
Ask: Return IC50 for the following compound: CN(C)c1ncc2nc(NC(=O)c3ccc(Cl)c([N+](=O)[O-])c3)sc2n1
Result: 21
